- Study System: MAGL (Rattus norvegicus, UniProt Q8R431)
- Sequence (Q8R431 1-303): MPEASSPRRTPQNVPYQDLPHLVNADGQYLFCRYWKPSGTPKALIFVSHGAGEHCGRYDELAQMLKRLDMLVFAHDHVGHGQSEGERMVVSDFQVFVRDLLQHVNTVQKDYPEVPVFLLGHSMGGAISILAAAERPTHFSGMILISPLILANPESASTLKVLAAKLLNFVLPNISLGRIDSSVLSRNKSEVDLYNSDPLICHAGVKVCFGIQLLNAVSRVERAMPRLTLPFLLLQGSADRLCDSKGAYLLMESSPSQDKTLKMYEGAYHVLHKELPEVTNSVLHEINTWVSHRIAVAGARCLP
Assign IC50 to each entry below.
Write it as a number; the unit nM goes unstated.

Query string: Query IC50 for O=C(OC(C(F)(F)F)C(F)(F)F)N1CCC(C(O)(c2ccc3c(c2)OCO3)c2ccc3c(c2)OCO3)CC1
Result string: 43

Query string: Input CN(Cc1cccc(-c2ccncc2)c1)C(=O)OC(C(F)(F)F)C(F)(F)F , output reported IC50.
Result string: 385

Query string: Write down IC50 measured for item O=C(Oc1ccc([N+](=O)[O-])cc1)N1CCC(C(O)(c2ccc3c(c2)OCO3)c2ccc3c(c2)OCO3)CC1 [JZL184, reference compound]
Result string: 262

Query string: Provide IC50 value for the following molecule: O=C(OC(C(F)(F)F)C(F)(F)F)N1CCN(Cc2cccc(Oc3ccccc3)c2)CC1
Result string: 14

* * *

Measured Property: pIC50
API: returns pIC50 as number; meaning -log10 of concentration in mol/L.

Query string: Quote hMAGL (Homo sapiens, UniProt Q99685) pIC50 for entry O=C(OC(C(F)(F)F)C(F)(F)F)N1CCN(Cc2cccc(Oc3ccccc3)c2)CC1 .
Result string: 8.43

Query string: Name the value of pIC50 reported for O=C(OC(C(F)(F)F)C(F)(F)F)N1CCC(C(O)(c2ccc3c(c2)OCO3)c2ccc3c(c2)OCO3)CC1 when tested on hMAGL (Homo sapiens, UniProt Q99685).
Sequence (Q99685 whole entry): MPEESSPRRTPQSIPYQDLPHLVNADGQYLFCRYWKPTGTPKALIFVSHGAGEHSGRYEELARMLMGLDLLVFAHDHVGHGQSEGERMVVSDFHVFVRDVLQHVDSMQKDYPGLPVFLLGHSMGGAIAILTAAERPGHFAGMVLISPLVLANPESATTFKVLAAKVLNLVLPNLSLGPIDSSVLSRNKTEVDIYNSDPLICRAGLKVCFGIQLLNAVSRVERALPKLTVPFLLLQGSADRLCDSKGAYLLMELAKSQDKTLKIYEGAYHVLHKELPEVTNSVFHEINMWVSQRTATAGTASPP
Result string: 8.23

* * *

So I've got a bunch of compounds here, and I need their IC50 values.
- Study System: UniProt:P97612
- Sequence (P97612 1-579): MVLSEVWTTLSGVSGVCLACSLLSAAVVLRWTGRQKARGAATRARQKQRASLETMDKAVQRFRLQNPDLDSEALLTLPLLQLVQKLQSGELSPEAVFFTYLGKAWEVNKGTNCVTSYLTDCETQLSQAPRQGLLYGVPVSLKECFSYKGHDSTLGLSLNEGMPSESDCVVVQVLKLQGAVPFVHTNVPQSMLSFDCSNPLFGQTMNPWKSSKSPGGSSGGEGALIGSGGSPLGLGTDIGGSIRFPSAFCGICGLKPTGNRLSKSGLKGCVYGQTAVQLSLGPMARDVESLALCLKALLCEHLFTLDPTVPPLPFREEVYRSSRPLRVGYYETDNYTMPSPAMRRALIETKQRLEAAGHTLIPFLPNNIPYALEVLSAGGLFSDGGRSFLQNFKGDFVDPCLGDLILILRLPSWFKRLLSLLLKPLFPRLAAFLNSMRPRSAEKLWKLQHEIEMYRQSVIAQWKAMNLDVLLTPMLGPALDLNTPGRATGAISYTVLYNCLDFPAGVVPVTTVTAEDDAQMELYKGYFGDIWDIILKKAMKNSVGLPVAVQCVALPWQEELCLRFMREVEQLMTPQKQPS
Respond numerically; units are µM and should not be typed.

Query string: Give me measured IC50, please, for this compound: O=C(Oc1ccc([N+](=O)[O-])cc1)N1CCC(C(O)(c2ccc3c(c2)OCO3)c2ccc3c(c2)OCO3)CC1 [JZL184, reference compound]
Result string: 3.57

Query string: Tell me IC50 reported for O=C(OC(C(F)(F)F)C(F)(F)F)N1CCN(Cc2cccc(Oc3ccccc3)c2)CC1
Result string: 14
